Listed below: inhibition values for each entry.
Target system: Glucose transporter (Leishmania mexicana)
Assay overview: ST_JUDE_LEISH: Cytotoxicity at 2uM final concentration against transgenic Leishmania Mexicana promastigotes LmGT2 that are glucose transport deficient and complemented with the L. Mexicana glucose transporter 2. Activity is measured by DNA content using SYBR green in vitro
Type: functional
Return type: number; implicit unit %.

> print(dat)
                                   compound  quantity.name  number
1  O=C1OC(c2cc3ccccc3n2S(=O)(=O)c2ccccc2)(c2cc3ccccc3n2S(=O)(=O)c2ccccc2)c2ccccc21     inhibition    2.01

Endpoint output: inhibition of NC(Cc1cccc(I)c1)C(=O)NCC1CCCO1 (stereo not given) . Value? 0.96

Now the compound CCCCCCNC(=O)C1Cc2c([nH]c3ccc(Br)cc23)C2(CCN(Cc3ccccc3)CC2)N1 (stereo not given) 30.9

Same question for CN1CCN(c2ccnc3ccc(NC(=O)Nc4c(Cl)cccc4Cl)cc23)CC1 please. -1.19

What do you have for COc1cccc(CNC(=O)NC2CCN(c3ccnc(Nc4ccc(F)cc4)n3)C2)c1 (stereo not given) ? -1.51

###

# inhibition per entry
Target system: Solute carrier family 2, facilitated glucose transporter member 1 (Homo sapiens) (UniProt P11166)
Sequence (P11166 whole entry): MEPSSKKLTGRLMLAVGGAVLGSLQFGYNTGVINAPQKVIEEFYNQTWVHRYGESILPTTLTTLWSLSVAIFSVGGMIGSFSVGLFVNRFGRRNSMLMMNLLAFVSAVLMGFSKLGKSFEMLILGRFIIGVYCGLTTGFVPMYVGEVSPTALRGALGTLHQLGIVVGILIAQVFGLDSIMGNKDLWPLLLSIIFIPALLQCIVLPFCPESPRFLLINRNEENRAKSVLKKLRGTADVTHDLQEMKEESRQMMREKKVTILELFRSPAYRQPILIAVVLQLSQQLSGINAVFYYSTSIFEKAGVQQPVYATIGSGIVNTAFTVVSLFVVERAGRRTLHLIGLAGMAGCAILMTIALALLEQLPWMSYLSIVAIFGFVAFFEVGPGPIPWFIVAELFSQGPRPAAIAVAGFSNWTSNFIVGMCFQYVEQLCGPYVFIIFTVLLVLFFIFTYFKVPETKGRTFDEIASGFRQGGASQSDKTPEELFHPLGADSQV
Assay overview: ST_JUDE_LEISH: Cytotoxicity at 2uM final concentration against transgenic Leishmania Mexicana promastigotes LmGLUT1 that are glucose transport deficient and complemented with the human glucose transporter GLUT1. Activity is measured by DNA content using SYBR green in vitro
Assay type: functional
A number alone suffices; assume %.

Name the recorded inhibition for Cc1cc(C(F)(F)F)n2nc(C3CCN(Cc4cc(C)c(O)c(C)c4)C3)cc2n1 (centres undefined) . 4.53

# repeat for CCNC(=O)Nc1ccc(-c2cccc(-c3nc4cccc(C)c4[nH]3)c2)cc1 5.51

###

Target system: Hexose transporter 1 (Plasmodium falciparum) (UniProt O97467)
Assay overview: ST_JUDE_LEISH: Cytotoxicity at 2uM final concentration against transgenic Leishmania Mexicana promastigotes LmPfHT that are glucose transport deficient and complemented with the Plasmodium falciparum hexose transporter. Activity is measured by DNA content using SYBR green in vitro
Format: functional
Attribute: inhibition
Lab book: enter the figure in %, no units written.

> print(dat)
                                   compound                             target.system  number
1  CC(C)COc1ccc(Cl)cc1Cc1ccc(-c2nc3cc(CCN(C)C)ccc3[nH]2)o1  Hexose transporter 1 (Plasmodium falciparum) (UniProt O97467)     4.3

# returns recorded inhibition (system: Hexose transporter 1 (Plasmodium falciparum) (UniProt O97467)) for N#Cc1ccc(-c2ccc(C(=O)Nc3ccc4c(c3)CCN(C3CCC3)CC4)nc2)cc1 3.06

Repeat for the following compound: Clc1cc(Cl)c2cc(CNCCCNc3ccc4ccccc4n3)[nH]c2c1 0.95

Query COc1ccc(CN(C)CCCCc2ccc(NC(=O)COc3cccc4sc5ccccc5c(=O)c34)cc2)cc1OC next -3.06

Could you do the same for Cc1cc(N[C@@H](Cc2ccccc2)C(=O)NCCc2ccccc2)nc(NCCc2ccccc2)n1 , please? 3.79

Continue with CC(C)c1sc(N2CCN(C)CC2)nc1C(=O)NCCc1ccc(Br)cc1 1.28

Continue with CCN(CCO)CCCC(C)Nc1ccnc2cc(Cl)ccc12 (stereo not given) 7.44

Same read-out for CNc1ccc(CNCc2cccc(-c3ccc(-c4nc5cccc(C)c5[nH]4)cc3)c2)cc1 ? 5.63

Do the same for Cc1ccccc1C1CCN(C2CCC(NC(=O)/C=C/c3cc(F)ccc3C(F)(F)F)CC2)CC1 (stereo not given) please -0.94

Would you kindly repeat that for COc1ccc2c(=NN=Cc3ccccc3Cl)cc(C)[nH]c2c1 ? 0.95

###

inhibition: recorded values
Target system: Hexose transporter 1 (Plasmodium falciparum) (UniProt O97467)
Assay overview: ST_JUDE_LEISH: Cytotoxicity at 2uM final concentration against transgenic Leishmania Mexicana promastigotes LmPfHT that are glucose transport deficient and complemented with the Plasmodium falciparum hexose transporter. Activity is measured by DNA content using SYBR green in vitro
Type: functional
Quick reminder: number only, in %, skip the unit.

Solved cases below.
> print(dat)
                                   compound                             target.system  quantity.name  number
1  COc1ccc(NC(=O)[C@H](Cc2ccccc2)Nc2cc(C)nc(NCCc3ccccc3OC)n2)cc1  Hexose transporter 1 (Plasmodium falciparum) (UniProt O97467)     inhibition   -1.38
2  CN1CCCc2ccc(NC(=O)Nc3ccc(Cl)c(Cl)c3)cc2C1  Hexose transporter 1 (Plasmodium falciparum) (UniProt O97467)     inhibition   -0.84
3  Cc1cccc2nc(-c3ccc(-c4ccc(CN5CCC(C(N)=O)CC5)cc4)cc3)[nH]c12  Hexose transporter 1 (Plasmodium falciparum) (UniProt O97467)     inhibition    5.37
4  O=C(C=Cc1ccc(C(=O)Nc2ccc(C3=NCCN3)cc2)cc1)Nc1ccc(C2=NCCN2)cc1  Hexose transporter 1 (Plasmodium falciparum) (UniProt O97467)     inhibition    5.38
5  c1csc(-c2ccc3c(c2)CC(NCc2c[nH]c4cnccc24)C3)c1 (centres undefined)  Hexose transporter 1 (Plasmodium falciparum) (UniProt O97467)     inhibition    5.34
6  O=C(NCCCCCN1CCC(c2c[nH]c3ccccc23)CC1)Nc1cccc(I)c1  Hexose transporter 1 (Plasmodium falciparum) (UniProt O97467)     inhibition    12.6
7  Cc1nc(O)c2c(ccc3ccc(CNc4ccc(C(=O)N[C@@H](CCC(=O)O)C(=O)O)c(F)c4)cc32)n1  Hexose transporter 1 (Plasmodium falciparum) (UniProt O97467)     inhibition    0.87
8  CN1CCC(NC(=O)c2cc(Oc3ccc4c(c3)CCN4C(=O)Nc3cccc(C(F)(F)F)c3)ccn2)CC1  Hexose transporter 1 (Plasmodium falciparum) (UniProt O97467)     inhibition    6.55

Note: attention shifts to another entry.
Would you kindly share the measured inhibition for CN(C)CC(=O)N(Cc1ccc(Cl)c(Cl)c1)Cc1csc(-c2ccc(CNCc3ccccc3)cc2)n1 ? 0.77

###

Target system: Glucose transporter (Leishmania mexicana) (UniProt O61059)
Assay overview: ST_JUDE_LEISH: Cytotoxicity at 2uM final concentration against transgenic Leishmania Mexicana promastigotes LmGT2 that are glucose transport deficient and complemented with the L. Mexicana glucose transporter 2. Activity is measured by DNA content using SYBR green in vitro
Type: functional
Quantity name: inhibition (%)
Expressed in %, but write only the number.

> print(dat)
                                   molecule  number
1  CCCC[C@@H](C(=O)NCCc1ccc(Cl)cc1)N1C(=O)CCC1C(=O)Nc1ccc(Cl)c(Cl)c1 (stereo not given in full)    0.19
2  CCCCCNC(=N)c1ccc(OCCCCCOc2ccc(C(=N)NCCCCC)cc2)cc1    5.15
3  O=C(Nc1ccc(S(=O)(=O)NCCCN2CCOCC2)cc1)c1cc(-c2ccccc2)[nH]n1    5.52
4                       NOCCCCOc1ccc(Br)cc1    2.59
5  Cc1cc(N[C@@H](CC(C)C)C(=O)Nc2ccccc2)nc(NCCc2ccccc2)n1    0.92

API: the following record is the query input.
Hi! What's the reported inhibition for N=C(N)c1ccc(NCc2cccc(C(=O)O)c2)cc1 on Glucose transporter (Leishmania mexicana) (UniProt O61059)? 3.66

###

Target system: Solute carrier family 2, facilitated glucose transporter member 1 (Homo sapiens) (UniProt P11166)
Assay overview: ST_JUDE_LEISH: Cytotoxicity at 2uM final concentration against transgenic Leishmania Mexicana promastigotes LmGLUT1 that are glucose transport deficient and complemented with the human glucose transporter GLUT1. Activity is measured by DNA content using SYBR green in vitro
Format: functional
Quantity name: inhibition (%)
Give the number; % is assumed, so skip it.

GET /values?readout=inhibition&item= CCc1ccc(NC(=O)c2cccc(CN3CCCN(CC4CCCCC4)CC3)c2)cc1 1.02

Another: CCN(CCCN1CCCCC1)c1cc(C)nc(Nc2cccc3c2CCCC3)n1 3.95

What do you get for O=C(NOCc1ccccc1)c1cc(Cl)ccc1O ? 2.44

Let us now turn to CCNc1cc(C(=O)N[C@@H](Cc2ccccc2)[C@H](O)CNC23CCC(CC2)C3)cc(N2CCCCS2(=O)=O)c1 0.79

Next compound up: COC(=O)c1cccc(CNCc2ccc(-c3ccc(-c4nc5ccccc5[nH]4)s3)cc2)c1 9.31

Can you handle COC(=O)c1ccc2nc(-c3cc(-c4cccc(-c5ccccc5)c4)cnc3N)[nH]c2c1 next? 5.22

Lookup O=C(NCC1CCN(Cc2ccsc2)C1)c1cc(-c2cccc(C(F)(F)F)c2)cs1 (stereo not given) 1.96

Same for CC(Nc1ccc2c(c1)CCC2)C(=O)Nc1cc(C(F)(F)F)ccc1N1CCOCC1 (stereo not given) 14.7

Can you check COc1ccc(Cl)cc1N1CCN(CCCNC(=O)c2ccc(-c3nc4c(C)cccc4[nH]3)s2)CC1 next? 1.19

Now the compound Cc1nc2c(=O)sc3ccccc3c2n1Cc1ccccc1 0.4

Try this compound too: Cc1cc(F)ccc1-c1nc(Nc2ccncc2)c2ccn(C)c2n1 1.12

Note, next up: COc1cc(Cc2cnc(N)nc2N)cc(OC)c1OCCNC(=O)[C@@H](N)CCC(=O)O -0.69

Same again, this time with CCCCCCN1CCN(Cc2cccc(NC(=O)c3ccc(Cl)c(Cl)c3)c2)CC1 5.8
